tgt: H3 receptor (Cavia porcellus)
Sequence (Q9JI35 whole entry): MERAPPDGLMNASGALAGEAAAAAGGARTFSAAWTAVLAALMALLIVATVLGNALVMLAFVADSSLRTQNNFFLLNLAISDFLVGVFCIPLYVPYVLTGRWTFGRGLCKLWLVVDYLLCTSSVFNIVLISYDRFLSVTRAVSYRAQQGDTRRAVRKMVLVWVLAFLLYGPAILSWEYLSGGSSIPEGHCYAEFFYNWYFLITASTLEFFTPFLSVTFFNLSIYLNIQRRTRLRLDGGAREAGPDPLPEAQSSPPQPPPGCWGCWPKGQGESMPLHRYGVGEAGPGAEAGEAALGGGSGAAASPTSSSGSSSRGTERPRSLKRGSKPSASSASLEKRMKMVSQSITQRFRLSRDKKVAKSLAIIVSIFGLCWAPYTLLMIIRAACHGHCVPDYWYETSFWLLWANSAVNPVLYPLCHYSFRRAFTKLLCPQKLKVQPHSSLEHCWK
test: H3 antagonistic activity against H3 agonist-induced inhibition of electrically evoked contraction of guinea-pig jejunum
measurement_context: pA2 (SEM) H3, guinea pig jejunum, vs (R)-α-methylhistamine, Schild analysis
Entry flag: T if Kb reaches 10 nM; F if it does not.

[[record]]
molecule = "CCCN1CCN(c2ncc(CCCN(C)CCc3ccccc3)s2)CC1 [Compound 3b]"
cat = "T"

[[record]]
molecule = "S=C(NC1CCCCC1)N1CCC(c2cnc[nH]2)CC1 [Thioperamide, thioperamide, reference compound]"
cat = "F"

[[record]]
molecule = "CCCN1CCN(c2ncc(CCCCN(C)CCc3ccccc3)s2)CC1 [Compound 3e]"
cat = "T"

[[record]]
molecule = "CCCN1CCN(c2ncc(CCCN(C)CCCc3ccccc3)s2)CC1 [Compound 3c]"
cat = "T"

[[record]]
molecule = "CCCN1CCN(c2ncc(CCCCN(C)Cc3ccccc3)s2)CC1 [Compound 3d]"
cat = "T"

[[record]]
molecule = "CCCN1CCN(c2ncc(CCCN(C)Cc3ccccc3)s2)CC1 [Compound 3a]"
cat = "F"

[[record]]
molecule = "CCCN1CCN(c2ncc(CCCCN(C)CCCc3ccccc3)s2)CC1 [Compound 3f]"
cat = "T"


* * *

tgt: UniProtKB Q9QYN8
Sequence (Q9QYN8 whole entry): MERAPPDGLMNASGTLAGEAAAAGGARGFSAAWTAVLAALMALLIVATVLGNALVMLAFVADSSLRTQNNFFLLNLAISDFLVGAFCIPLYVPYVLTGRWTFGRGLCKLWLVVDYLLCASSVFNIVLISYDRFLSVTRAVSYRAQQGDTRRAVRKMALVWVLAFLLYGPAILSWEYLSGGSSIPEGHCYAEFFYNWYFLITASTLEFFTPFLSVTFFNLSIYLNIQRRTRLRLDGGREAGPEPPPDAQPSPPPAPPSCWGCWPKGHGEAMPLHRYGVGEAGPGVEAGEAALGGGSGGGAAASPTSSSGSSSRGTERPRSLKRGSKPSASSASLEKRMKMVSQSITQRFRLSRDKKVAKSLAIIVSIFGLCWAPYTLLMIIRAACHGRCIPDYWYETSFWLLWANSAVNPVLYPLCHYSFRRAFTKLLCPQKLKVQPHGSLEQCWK
pKi: −log10 of the molar value.
reported_endpoint: pKi

[[record]]
compound = "S=C(NC1CCCCC1)N1CCC(c2cnc[nH]2)CC1 [Thioperamide, thioperamide, reference compound]"
value = 7.90


* * *

tgt: H3 receptor (Cavia porcellus)
test: H3 antagonistic activity against H3 agonist-induced inhibition of electrically evoked contraction of guinea-pig jejunum
measurement_context: guinea pig jejunum, vs (R)-α-methylhistamine, Schild analysis
Listed here: items and their measured pA2 (SEM) H3.
reported_endpoint: pA2 (SEM) H3

[[record]]
smiles_notation = "CCCN1CCN(c2ncc(CCCN(C)Cc3ccccc3)s2)CC1"
value = 8.38

[[record]]
smiles_notation = "CCCN1CCN(c2ncc(CCCN(C)CCc3ccccc3)s2)CC1"
value = 7.81

[[record]]
smiles_notation = "CCCN1CCN(c2ncc(CCCCN(C)CCCc3ccccc3)s2)CC1"
value = 7.91

[[record]]
smiles_notation = "CCCN1CCN(c2ncc(CCCN(C)CCCc3ccccc3)s2)CC1"
value = 7.46


* * *

tgt: human histamine H3 receptor (hH3R) (Homo sapiens)
Sequence (Q9Y5N1 whole entry): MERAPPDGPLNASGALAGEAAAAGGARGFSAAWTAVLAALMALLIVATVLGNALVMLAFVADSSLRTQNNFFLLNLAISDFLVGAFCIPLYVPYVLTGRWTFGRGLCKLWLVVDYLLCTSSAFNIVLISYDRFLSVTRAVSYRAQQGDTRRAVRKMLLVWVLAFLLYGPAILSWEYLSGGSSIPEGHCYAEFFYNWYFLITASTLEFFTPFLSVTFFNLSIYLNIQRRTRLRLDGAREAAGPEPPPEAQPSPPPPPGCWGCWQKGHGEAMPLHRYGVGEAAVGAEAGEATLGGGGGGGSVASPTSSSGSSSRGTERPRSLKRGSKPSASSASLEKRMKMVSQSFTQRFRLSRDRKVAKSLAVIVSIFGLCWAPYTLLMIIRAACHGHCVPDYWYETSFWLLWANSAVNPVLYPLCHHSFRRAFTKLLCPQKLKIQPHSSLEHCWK
reported_endpoint: Kd (nM)

[[record]]
compound = "CNCCc1cnc[nH]1 [[^3H]-N^α-MH, [^3H]-N^α-methylhistamine]"
value = 0.9

